# experimentalTarget: Akt2 (Homo sapiens)
# Construct: unspecified tag, removed (detagged) (cleaved yes); purchased SignalChem and Proteros (Akt2); Merck Millipore (PDK1) 14-452 (PDK1); none given for Akt2
# Sequence (P31751 whole entry): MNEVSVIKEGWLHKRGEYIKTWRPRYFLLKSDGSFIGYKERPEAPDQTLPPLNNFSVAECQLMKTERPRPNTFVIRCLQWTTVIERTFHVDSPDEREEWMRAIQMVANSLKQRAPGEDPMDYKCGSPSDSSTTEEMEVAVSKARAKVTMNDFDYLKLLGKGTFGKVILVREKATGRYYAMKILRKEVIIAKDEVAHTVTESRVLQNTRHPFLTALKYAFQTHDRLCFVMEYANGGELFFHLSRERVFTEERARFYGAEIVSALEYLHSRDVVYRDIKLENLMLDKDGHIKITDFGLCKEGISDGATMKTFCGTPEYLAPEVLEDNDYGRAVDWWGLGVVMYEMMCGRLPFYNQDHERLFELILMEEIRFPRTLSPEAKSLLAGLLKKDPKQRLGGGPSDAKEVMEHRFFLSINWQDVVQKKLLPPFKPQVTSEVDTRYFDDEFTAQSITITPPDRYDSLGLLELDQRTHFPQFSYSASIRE
# assayMethodText: Akt activation assay (PDK1-mediated activation, LANCE Ultra crosstide TR-FRET), Akt2
# Type: biochemical
# cond: read-out: Biological Assay 1 IC50 (nM) Akt2
observable: IC50 (nM)

NC1(c2ccc(-c3ncc(NC(=O)C[C@H]4CC[C@H](NC(=O)C5CC5)CC4)cc3-c3ccccc3)cc2)CCC1 [Example A39]; 140
CC(=O)N(C)[C@H]1CC[C@H](CC(=O)Nc2cc(-c3ccccc3)c(-c3ccc([C@]4(N)C[C@](C)(O)C4)cc3)cn2)CC1 [Example A58]; 190
CC(C)(C)C(=O)N[C@H]1CC[C@H](CC(=O)Nc2cnc(-c3ccc(C4(N)CCC4)cc3)c(-c3ccsc3)c2)CC1 [Example A40]; 810

(I) CCC(=O)N(C)[C@H]1CC[C@H](CC(=O)Nc2cc(-c3ccccc3)c(-c3ccc([C@]4(N)C[C@H](F)C4)cc3)nn2)CC1 [Example 123]
(II) CC(C)(N)c1ccc(-c2ncc(NC(=O)C[C@H]3CC[C@H](N4CCOCC4)CC3)cc2-c2ccccc2)cc1 [Example A18]
Look at I and II . Which one has the lower recorded IC50 number? In your reply, give the label of the chosen option.
I
(I: 230 nM, II: 25000 nM)
